- method_summary: Toxicity liver stage against HepG2, at 10uM
- Assay type: cell-based
- Design: test concentration 10 uM, cell line HepG2-A16-CD81EGFP
- condition_details: human, HepG2-A16-CD81EGFP cells; read-out: INHIBITION
readout: cytotoxicity at 10 µM

[[record]]
compound = "NC(=O)C1CN(C(=O)Nc2cc(Cl)cc(Cl)c2)CCO1 (stereo not drawn)"
result = "55.1%"

[[record]]
compound = "CS(=O)(=O)N1CCC(C(=O)NCCCn2cc(Cl)cn2)CC1"
result = "-8.97%"

[[record]]
compound = "CCc1nc(CN2CCCCC2C(N)=O)cs1 (stereo not drawn)"
result = "-7.96%"


Lab note: CS(=O)(=O)CCn1ccc(NC(=O)c2c(F)cccc2F)n1 gave cytotoxicity at 10 µM of 18.2%

Measured cytotoxicity at 10 µM of O=C(c1ccno1)N1C[C@@H](F)[C@@H](OCc2nc3ccccc3o2)C1 : 7.61%

Form: compound = COc1ccc(C(=O)c2cnc(C(C)C)n2C)cc1 ; cytotoxicity at 10 µM = 15.5%

According to the records, this compound O=C(Cc1ccccn1)N1CCC(O)(Cn2ccc3ccncc32)CC1 displays cytotoxicity at 10 µM of -5.24%

The reported value for CS(=O)(=O)c1ccc(NCCC2CCCO2)c(S(C)(=O)=O)c1 (stereo not drawn) in terms of cytotoxicity at 10 µM is -4.27%

====

- method_summary: Toxicity liver stage against HepG2, at 10uM
- Assay type: cell-based
- Set-up: test concentration 10 uM, cell line HepG2-A16-CD81EGFP
- condition_details: human, HepG2-A16-CD81EGFP cells; read-out: INHIBITION
cytotoxicity at 10 µM values by entry
Numbers only here, please. The scale is %.

Memo: Cc1ccc(NC(=O)c2coc(C)n2)c(C)c1 , reported cytotoxicity at 10 µM: -4.94

Noted for Cc1ccc(C(=O)N2Cc3c(CN(C)C)nn(C)c3C2)cc1C : its cytotoxicity at 10 µM reads 1.77

====

- method_summary: Toxicity liver stage against HepG2, at 10uM
- Format: cell-based
- Set-up: test concentration 10 uM, cell line HepG2-A16-CD81EGFP
- condition_details: human, HepG2-A16-CD81EGFP cells; read-out: INHIBITION
Listing of recorded cytotoxicity at 10 µM by entry.

Answered examples (5):
[[record]]
compound = "O=C1CN(C(=O)c2cccc(OCc3cscn3)c2)CCN1"
readout = "cytotoxicity at 10 µM"
result = "1.9%"

[[record]]
compound = "CC(C)N1CCCC2(CCN(c3nccc(C(F)(F)F)n3)C2)C1=O (stereo not given)"
readout = "cytotoxicity at 10 µM"
result = "11.4%"

[[record]]
compound = "Cn1ccnc1CN1CCN(c2ccc(C#N)cn2)CC1"
readout = "cytotoxicity at 10 µM"
result = "-4.2%"

[[record]]
compound = "COCCCN1CCCC2(CCN(S(=O)(=O)c3cccnc3)C2)C1=O (stereo not given)"
readout = "cytotoxicity at 10 µM"
result = "8.21%"

[[record]]
compound = "Cc1cc(C)n(CC2CCCN2C(=O)c2ccc3[nH]cnc3c2)n1 (stereo not given)"
readout = "cytotoxicity at 10 µM"
result = "3.18%"


Note to self: cytotoxicity at 10 µM recorded for CCN(CC)S(=O)(=O)c1ccc2c(c1)N(Cc1ccccn1)C(=O)CS2 was 3.51%

O=C(Cc1cccs1)N1CCCC(CNS(=O)(=O)Cc2ccccc2)C1 (stereo not given) has a reported cytotoxicity at 10 µM of 5.78%

====

- method_summary: Toxicity liver stage against HepG2, at 10uM
- Type: cell-based
- Parameters: test concentration 10 uM, cell line HepG2-A16-CD81EGFP
- condition_details: human, HepG2-A16-CD81EGFP cells; read-out: INHIBITION
Reported cytotoxicity at 10 µM values for a set of compounds
Answer in %, number only, no unit symbol.

Take a look at these entries with their results.
[[record]]
compound = "CC(C)c1nc2c(n1C)CCN(CC(=O)Nc1nncs1)C2"
readout = "cytotoxicity at 10 µM"
numeric_result = -10.1

[[record]]
compound = "N#CC1(NC(=O)c2c(F)ccc(OC(F)F)c2F)CCOCC1"
readout = "cytotoxicity at 10 µM"
numeric_result = -8.29

[[record]]
compound = "Cn1ccc(C(=O)N2CCC(c3cc(CCO)n(C)n3)C2)n1 (stereo not drawn)"
readout = "cytotoxicity at 10 µM"
numeric_result = -3.69

[[record]]
compound = "CC(=O)c1ccc(CNC(=O)c2cc(C)nn2C)nc1C"
readout = "cytotoxicity at 10 µM"
numeric_result = 6.21

[[record]]
compound = "O=C(CCN1CCCO1)N1CC[C@@H](CNC(=O)N2CCCC2)[C@H](O)C1"
readout = "cytotoxicity at 10 µM"
numeric_result = 0.275

[[record]]
compound = "CN(C)CC(=O)N1CCc2ncnc(-c3ccsc3)c2CC1"
readout = "cytotoxicity at 10 µM"
numeric_result = -12.3

[[record]]
compound = "Fc1ccc(CN2Cc3nccn3CC(CN3CCOCC3)C2)cc1 (stereo not drawn)"
readout = "cytotoxicity at 10 µM"
numeric_result = -73.7

[[record]]
compound = "CCC(O)CNC(=O)c1cc(COc2ccc(OC)cc2Cl)[nH]n1 (stereo not drawn)"
readout = "cytotoxicity at 10 µM"
numeric_result = -8.09

[[record]]
compound = "CCN(CC)c1ncccc1CNCc1cc2ccccc2s1"
readout = "cytotoxicity at 10 µM"
numeric_result = 4.43

[[record]]
compound = "CN1CC[C@]2(CN(CC3CCOC3)C[C@H]2c2ccccc2)C1=O (stereo partly drawn)"
readout = "cytotoxicity at 10 µM"
numeric_result = 0.619


Entry Cc1ccc(CNC(=O)CC2C(=O)NCCN2Cc2ccccc2C)s1 (stereo not drawn) ; cytotoxicity at 10 µM = -7.98

Given item COc1ccc(-c2noc([C@@H]3C[C@@H](O)CN3C3CCN(C)CC3)n2)cc1 , the value recorded as its cytotoxicity at 10 µM is -1.16

# cytotoxicity at 10 µM of Cn1cc(-c2nnn3c2COC(CNCc2cccnc2)C3)cn1 (stereo not drawn) = 0.824

Record COCCN1C[C@@H]2OCCN(c3ccnc(N(C)C)n3)[C@@H]2C1 , field cytotoxicity at 10 µM: -118

====

Listing: cytotoxicity at 10 µM of selected compounds
- method_summary: Toxicity liver stage against HepG2, at 10uM
- Type: cell-based
- Set-up: test concentration 10 uM, cell line HepG2-A16-CD81EGFP
- condition_details: human, HepG2-A16-CD81EGFP cells; read-out: INHIBITION
Dear colleague, please return just the value in %, with no unit written.

See these solved cases before continuing.
[[record]]
compound = "CC(C)NC(=O)N1CC[C@@H]2CN(Cc3cccc(Cl)c3)S(=O)(=O)[C@@H]2CC1"
readout = "cytotoxicity at 10 µM"
numeric_result = 4.71

[[record]]
compound = "COc1ccc(CNc2cccnc2-n2cccn2)c(OC)c1OC"
readout = "cytotoxicity at 10 µM"
numeric_result = 5.69

[[record]]
compound = "CN(C)CCN(C)C(=O)c1cnc2c(c1)nc(-c1ccccc1Cl)n2C"
readout = "cytotoxicity at 10 µM"
numeric_result = 9.3

[[record]]
compound = "Cc1noc([C@@]23CCO[C@@H]2CCN(C(=O)c2sccc2C)C3)n1"
readout = "cytotoxicity at 10 µM"
numeric_result = -8.23

[[record]]
compound = "c1cncc(-c2noc(CN3CCCCC3Cn3cccn3)n2)c1 (stereo unspecified)"
readout = "cytotoxicity at 10 µM"
numeric_result = -2.42


Next compound, please.
Recorded result, Cc1cc2n(n1)CC(CNC1CCN(C3CC3)CC1)CN2 (stereo unspecified) , cytotoxicity at 10 µM: 4.16

====

cytotoxicity at 10 µM values, listed per item
- method_summary: Toxicity liver stage against HepG2, at 10uM
- Format: cell-based
- Design: test concentration 10 uM, cell line HepG2-A16-CD81EGFP
- condition_details: human, HepG2-A16-CD81EGFP cells; read-out: INHIBITION
Give the value, in units of %, as a plain number.

[[record]]
molecule = "Cc1cc(C(=O)N2CCCC(c3nc(C)no3)C2)on1 (stereo unspecified)"
numeric_result = 6.93

[[record]]
molecule = "c1cc(CN2CCC(CCn3cccn3)CC2)cc(Cn2cccn2)c1"
numeric_result = -1.58

[[record]]
molecule = "CC(=O)Nc1nc(C(=O)NC(C)c2ccncc2)cs1 (stereo unspecified)"
numeric_result = -6.5

[[record]]
molecule = "CSc1ccc(C(=O)C2CCCN(C(=O)Cn3cnnn3)C2)cc1 (stereo unspecified)"
numeric_result = -1.57

[[record]]
molecule = "Cn1cc(CN2CCc3c(c(COCC#N)nn3C)C2)cn1"
numeric_result = -2.45


Okay, next one:
According to the records, this molecule Cc1ccccc1CN(CCN(C)C)Cc1ccc(S(C)(=O)=O)cc1 displays cytotoxicity at 10 µM of 6.3
